target: OXA-48 (UniProt Q6XEC0); experiment: β-lactamase enzyme inhibition assay, Class D oxacillinase; conditions: read-out: OXA-48
pIC50: −log10 of the molar value.
pIC50 values by entry

Check out these entries, answers already filled in.
>>> reported("CN(C)CCn1nnnc1CC(=O)N[C@H]1Cc2cccc(C(=O)O)c2OB1O")
"6.00 to 7.00"
>>> reported("NCCn1ncnc1CC(=O)N[C@H]1Cc2cccc(C(=O)O)c2OB1O")
"6.00 to 7.00"
>>> reported("NCc1nnn(CC(=O)N[C@H]2Cc3cccc(C(=O)O)c3OB2O)c1I")
"> 7.00"

Tested on OXA-48 (UniProt Q6XEC0), the item NCCCC[C@@H](C(=O)N[C@H]1Cc2cccc(C(=O)O)c2OB1O)n1cc(CN)nn1 showed pIC50 equal to 6.00 to 7.00

Tested on OXA-48 (UniProt Q6XEC0), the item O=C(Cn1cc(C(=O)NC2CCNCC2)nn1)N[C@H]1Cc2cccc(C(=O)O)c2OB1O showed pIC50 equal to 6.00 to 7.00

###

pIC50 values by entry
molecular target: UniProt P05364; experiment: β-lactamase enzyme inhibition assay, p99 AmpC (nitrocefin substrate)
pIC50: −log10 of the molar value.

The value of pIC50 measured for the compound NCCCNC(=O)c1cn(CC(=O)N[C@H]2Cc3cccc(C(=O)O)c3OB2O)nn1 [Example 65] turned out to be > 7.00

###

target: OXA-48 (UniProt Q6XEC0); assay: β-lactamase enzyme inhibition assay, Class D oxacillinase; details: read-out: OXA-48
pIC50: −log10 of the molar value.
experimentalEndpoint: pIC50

Check out these entries, answers already filled in.
>>> reported("NCc1nc(CC(=O)N[C@H]2Cc3cccc(C(=O)O)c3OB2O)cs1")
"> 7.00"
>>> reported("O=C(Cn1cncn1)N[C@H]1Cc2cccc(C(=O)O)c2OB1O")
"5.00 to 6.00"
>>> reported("NCCONC(=O)c1cn(CC(=O)N[C@H]2Cc3cccc(C(=O)O)c3OB2O)nn1")
"6.00 to 7.00"
>>> reported("N=CNCCn1nnnc1CC(=O)N[C@H]1Cc2cccc(C(=O)O)c2OB1O")
"6.00 to 7.00"
>>> reported("NCCn1cnc(C(=O)N[C@H]2Cc3cccc(C(=O)O)c3OB2O)c1")
"6.00 to 7.00"
>>> reported("CC(C)(C(=O)N[C@H]1Cc2cccc(C(=O)O)c2OB1O)n1cc(CN)nn1")
"> 7.00"
>>> reported("O=C(Cn1cc(C(=O)N[C@@H]2CCNC2)nn1)N[C@H]1Cc2cccc(C(=O)O)c2OB1O")
"6.00 to 7.00"
>>> reported("O=C(Cn1cc(-c2cccs2)nn1)N[C@H]1Cc2cccc(C(=O)O)c2OB1O")
"6.00 to 7.00"

Tested on OXA-48 (UniProt Q6XEC0), the item NCCn1cncc1C(=O)N[C@H]1Cc2cccc(C(=O)O)c2OB1O showed pIC50 equal to 6.00 to 7.00

###

target: AmpC (Enterobacter cloacae); experiment: β-lactamase enzyme inhibition assay, p99 AmpC (nitrocefin substrate)
Sequence (P05364 21-381): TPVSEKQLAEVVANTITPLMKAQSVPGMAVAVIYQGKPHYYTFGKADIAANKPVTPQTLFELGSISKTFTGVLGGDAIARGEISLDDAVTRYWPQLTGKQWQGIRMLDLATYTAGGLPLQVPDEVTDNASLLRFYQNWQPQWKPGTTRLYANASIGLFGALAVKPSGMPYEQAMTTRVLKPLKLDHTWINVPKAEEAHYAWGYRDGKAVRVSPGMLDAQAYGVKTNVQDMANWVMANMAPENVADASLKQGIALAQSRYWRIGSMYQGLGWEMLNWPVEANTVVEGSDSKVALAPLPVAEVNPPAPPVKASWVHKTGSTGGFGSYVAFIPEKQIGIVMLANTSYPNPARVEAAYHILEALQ
IC50 values by entry

Check out these entries, answers already filled in.
>>> reported("NCc1ncn(CC(=O)N[C@H]2Cc3cccc(C(=O)O)c3OB2O)n1")
"< 100 nM"
>>> reported("NCCCc1c(CN)nnn1CC(=O)N[C@H]1Cc2cccc(C(=O)O)c2OB1O")
"100 to 1000 nM"
>>> reported("O=C(Cn1nnnc1CC(=O)N[C@H]1Cc2cccc(C(=O)O)c2OB1O)N[C@H]1CCNC1")
"< 100 nM"
>>> reported("NCc1cc(-c2cn(CC(=O)N[C@H]3Cc4cccc(C(=O)O)c4OB3O)nn2)cs1")
"< 100 nM"
>>> reported("O=C(Cn1ccc(B(O)O)n1)N[C@H]1Cc2cccc(C(=O)O)c2OB1O")
"< 100 nM"
>>> reported("CNCc1cn(CC(=O)N[C@H]2Cc3cccc(C(=O)O)c3OB2O)nn1")
"< 100 nM"
>>> reported("NCCn1cnc(C(=O)N[C@H]2Cc3cccc(C(=O)O)c3OB2O)n1")
"< 100 nM"
>>> reported("CC(C)NCCc1cn(CC(=O)N[C@H]2Cc3cccc(C(=O)O)c3OB2O)nn1")
"< 100 nM"
>>> reported("CNCc1c(CO)nnn1CC(=O)N[C@H]1Cc2cccc(C(=O)O)c2OB1O")
"< 100 nM"
>>> reported("NCCNC(=O)c1cn(CC(=O)N[C@H]2Cc3cccc(C(=O)O)c3OB2O)nn1")
"< 100 nM"

The value of IC50 measured for the compound O=C(Cn1cc(C(=O)NC2CNC2)nn1)N[C@H]1Cc2cccc(C(=O)O)c2OB1O turned out to be < 100 nM

The value of IC50 measured for the compound NCc1nc(CC(=O)N[C@H]2Cc3cccc(C(=O)O)c3OB2O)cs1 turned out to be < 100 nM

The value of IC50 measured for the compound O=C(Cn1cnnn1)N[C@H]1Cc2cccc(C(=O)O)c2OB1O turned out to be < 100 nM

The value of IC50 measured for the compound NCCc1cnnn1CC(=O)N[C@H]1Cc2cccc(C(=O)O)c2OB1O turned out to be < 100 nM

The value of IC50 measured for the compound NCc1ccc(-c2cn(CC(=O)N[C@H]3Cc4cccc(C(=O)O)c4OB3O)nn2)cn1 turned out to be < 100 nM

The value of IC50 measured for the compound O=C(Cn1nnc(C(=O)O)c1C(=O)O)N[C@H]1Cc2cccc(C(=O)O)c2OB1O turned out to be < 100 nM

The value of IC50 measured for the compound NCc1cnnn1CC(=O)N[C@H]1Cc2cccc(C(=O)O)c2OB1O turned out to be < 100 nM

The value of IC50 measured for the compound NCCc1nnnn1CC(=O)N[C@H]1Cc2cccc(C(=O)O)c2OB1O turned out to be < 100 nM
